log10 IC50 reference
# Test system: HL-60/DOX
# TEST METHOD NOTES: MTT cytotoxicity test
# Assay type: cell-based, human
# ASSAY SETUP: Homo sapiens, 72 h exposure
MEASURE NAME: log10 IC50 (log10 of the value in µM)

{"columns": ["MOLECULE", "QUANTITATIVE RESULT"],
 "data": [
  ["CC[C@H](C)C(=O)c1c(O)cc(O)cc1OC/C=C(\\C)CCC=C(C)C [Compound 2, olympicin A]", 0.29],
  ["CC(C)=CCC[C@]1(C)[C@@H](CC=C(C)C)C[C@H]2C(=O)[C@]1(C(=O)C(C)C)C(=O)C(CC=C(C)C)=C2O [Compound 5]", 0.23],
  ["CC(C)=CCC[C@]1(C)[C@@H](CC=C(C)C)C[C@]2(C)C(=O)C(CC=C(C)C)=C(O)[C@@]1(C(=O)C(C)C)C2=O [Compound 3, hyperpolyphyllirin/hyperibine J]", 0.11],
  ["CC(C)=CCC/C(C)=C/COc1cc(O)cc(O)c1C(=O)C(C)C [Compound 1]", 0.75],
  ["COc1cc([C@@H]2c3cc4c(cc3[C@@H](O[C@@H]3O[C@@H]5CO[C@@H](C)O[C@H]5[C@H](O)[C@H]3O)[C@H]3COC(=O)[C@H]23)OCO4)cc(OC)c1O [Etoposide, reference compound]", 1.63]
]}

---

# System: human tumor (MDA-MB-231, EJ, K-562, HL-60 and HL-60/DOX) cell lines
# TEST METHOD NOTES: MTT cytotoxicity test, tumor cell line panel
# Assay type: cell-based
# ASSAY SETUP: Homo sapiens; tumor cell lines, MTT assay; read-out: IC50 (range over the tumor cell lines)

{"columns": ["MOLECULE", "IC50"],
 "data": [
  ["CC(C)=CCC[C@]1(C)[C@@H](CC=C(C)C)C[C@H]2C(=O)[C@]1(C(=O)C(C)C)C(=O)C(CC=C(C)C)=C2O [Compound 5]", "1160 to 1710 nM"]
]}

---

# System: EA.hy926
# TEST METHOD NOTES: MTT cytotoxicity test
# Format: cell-based, human
# ASSAY SETUP: Homo sapiens, EA.hy 926, EA.hy926, 72 h exposure
pIC50: −log10 of the molar value.
pIC50 reference

{"columns": ["MOLECULE", "pIC50"],
 "data": [
  ["CC(C)=CCC[C@]1(C)[C@@H](CC=C(C)C)C[C@]2(C)C(=O)C(CC=C(C)C)=C(O)[C@@]1(C(=O)C(C)C)C2=O [Compound 3, hyperpolyphyllirin/hyperibine J]", 4.70],
  ["CC(C)=CCC[C@]1(C)[C@@H](CC=C(C)C)C[C@H]2C(=O)[C@]1(C(=O)C(C)C)C(=O)C(CC=C(C)C)=C2O [Compound 5]", 5.03],
  ["CC[C@H](C)C(=O)c1c(O)cc(O)cc1OC/C=C(\\C)CCC=C(C)C [Compound 2, olympicin A]", 4.47],
  ["CC(C)=CCC/C(C)=C/COc1cc(O)cc(O)c1C(=O)C(C)C [Compound 1]", 5.17]
]}

---

pIC50 reference
# Tested on: EJ
# TEST METHOD NOTES: MTT cytotoxicity test
# Format: cell-based, human
# ASSAY SETUP: Homo sapiens, 72 h exposure
pIC50: −log10 of the molar value.

{"columns": ["MOLECULE", "STUDY TARGET", "pIC50"],
 "data": [
  ["CC(C)=CCC/C(C)=C/COc1cc(O)cc(O)c1C(=O)C(C)C", "EJ", 5.15],
  ["CC(C)=CCC[C@]1(C)[C@@H](CC=C(C)C)C[C@]2(C)C(=O)C(CC=C(C)C)=C(O)[C@@]1(C(=O)C(C)C)C2=O", "EJ", 5.10],
  ["COc1cc([C@@H]2c3cc4c(cc3[C@@H](O[C@@H]3O[C@@H]5CO[C@@H](C)O[C@H]5[C@H](O)[C@H]3O)[C@H]3COC(=O)[C@H]23)OCO4)cc(OC)c1O [Etoposide, reference compound]", "EJ", 5.27],
  ["CC(C)=CCC[C@]1(C)[C@@H](CC=C(C)C)C[C@H]2C(=O)[C@]1(C(=O)C(C)C)C(=O)C(CC=C(C)C)=C2O", "EJ", 5.92],
  ["CC[C@H](C)C(=O)c1c(O)cc(O)cc1OC/C=C(\\C)CCC=C(C)C", "EJ", 5.25]
]}

---

# System: human tumor (MDA-MB-231, EJ, K-562, HL-60 and HL-60/DOX) cell lines
# TEST METHOD NOTES: MTT cytotoxicity test, tumor cell line panel
# Format: cell-based
# ASSAY SETUP: Homo sapiens; average IC50 of all chemo-sensitive tested tumor cell lines; read-out: x
MEASURE NAME: IC50 (µM)

{"columns": ["COMPOUND", "STUDY TARGET", "UNIT OF MEASUREMENT", "QUANTITATIVE RESULT"],
 "data": [
  ["CC[C@H](C)C(=O)c1c(O)cc(O)cc1OC/C=C(\\C)CCC=C(C)C [Compound 2, olympicin A]", "human tumor (MDA-MB-231, EJ, K-562, HL-60 and HL-60/DOX) cell lines", "µM", 11.3],
  ["CC(C)=CCC/C(C)=C/COc1cc(O)cc(O)c1C(=O)C(C)C [Compound 1]", "human tumor (MDA-MB-231, EJ, K-562, HL-60 and HL-60/DOX) cell lines", "µM", 14.5],
  ["CC(C)=CCC[C@]1(C)[C@@H](CC=C(C)C)C[C@]2(C)C(=O)C(CC=C(C)C)=C(O)[C@@]1(C(=O)C(C)C)C2=O [Compound 3, hyperpolyphyllirin/hyperibine J]", "human tumor (MDA-MB-231, EJ, K-562, HL-60 and HL-60/DOX) cell lines", "µM", 6.18],
  ["CC(C)=CCC[C@]1(C)[C@@H](CC=C(C)C)C[C@H]2C(=O)[C@]1(C(=O)C(C)C)C(=O)C(CC=C(C)C)=C2O [Compound 5]", "human tumor (MDA-MB-231, EJ, K-562, HL-60 and HL-60/DOX) cell lines", "µM", 1.32]
]}
